All figures here come from patent US10844077B2.

Target Desc: UniProt P51956
Sequence (P51956 whole entry): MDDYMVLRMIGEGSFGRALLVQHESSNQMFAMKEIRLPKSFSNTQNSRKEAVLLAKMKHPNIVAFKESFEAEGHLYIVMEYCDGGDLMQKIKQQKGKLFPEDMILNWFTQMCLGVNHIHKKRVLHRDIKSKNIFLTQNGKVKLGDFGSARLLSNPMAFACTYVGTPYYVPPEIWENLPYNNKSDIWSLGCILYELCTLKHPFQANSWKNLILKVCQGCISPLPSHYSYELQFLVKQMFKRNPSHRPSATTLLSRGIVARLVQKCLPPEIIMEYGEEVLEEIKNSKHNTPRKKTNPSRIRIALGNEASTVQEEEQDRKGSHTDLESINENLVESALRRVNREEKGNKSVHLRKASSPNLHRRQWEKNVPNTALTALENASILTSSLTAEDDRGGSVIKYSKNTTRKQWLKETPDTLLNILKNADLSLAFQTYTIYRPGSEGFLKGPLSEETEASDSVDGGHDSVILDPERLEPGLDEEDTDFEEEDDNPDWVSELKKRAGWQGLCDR
Procedure Summary: KINATIV assay
Assay type: cell-based
Conditions: 1 μM, 90 minutes, BCWM.1 cells
Measurement Label: % change of MS signal compared to control sample (%)
Value expressed in %; do not type the unit.

The examples below pair each entry with its known result.
> print(dat)
                                   compound  unit.annotation  reported.measurement
1  C=CC(=O)N1CCC(CNc2nccc(Nc3ncc(C(=O)Nc4c(C)cccc4C)s3)n2)C1 (racemic)                %                   3.2
2  C=CC(=O)N1CCCCC(Nc2nccc(Nc3ncc(C(=O)Nc4c(C)cccc4C)s3)n2)C1 (stereo not shown)                %                  15.6
3  C=CC(=O)N1CCC(Cn2ccc(Nc3ncc(C(=O)Nc4c(C)cccc4Cl)s3)n2)C1 (stereo not shown)                %                   8.1

Let us examine a further case.
Which measured % change of MS signal compared to control sample value corresponds to C=CC(=O)N1CC[C@@H](Nc2nccc(Nc3ncc(C(=O)Nc4c(C)cccc4C)s3)n2)C1 ?
3.5

###

Recorded % change of MS signal compared to control sample, one value per entry.
Target Desc: Erk2 (Homo sapiens (Human), UniProt P28482)
Sequence (P28482 whole entry): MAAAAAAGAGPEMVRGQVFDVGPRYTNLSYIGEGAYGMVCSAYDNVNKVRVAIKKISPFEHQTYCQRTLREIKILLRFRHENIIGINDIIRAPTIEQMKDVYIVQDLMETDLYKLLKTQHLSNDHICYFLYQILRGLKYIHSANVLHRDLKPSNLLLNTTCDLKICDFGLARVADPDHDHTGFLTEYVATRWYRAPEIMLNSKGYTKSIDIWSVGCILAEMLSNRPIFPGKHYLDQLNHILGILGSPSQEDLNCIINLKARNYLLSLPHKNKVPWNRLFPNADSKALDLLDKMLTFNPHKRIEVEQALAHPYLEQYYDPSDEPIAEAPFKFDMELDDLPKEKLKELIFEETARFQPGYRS
Procedure Summary: KINATIV assay
Assay type: cell-based
Conditions: 1 μM, 90 minutes, BCWM.1 cells
Description: The cells were harvested and lysed. The lysates were directly labeled with an ATP-biotin probe. Bound kinases were identified and quantitated by ACTIVX as described in Patricelli et al., Biochemistry, 2007, 46(2): 350-358. The compounds were tested in duplicates against duplicate or quadruplicate control samples.
Value expressed in %; do not type the unit.

> print(dat)
                                   compound  reported.measurement
1  C=CC(=O)N1CC[C@@H](Nc2nccc(Nc3ncc(C(=O)Nc4c(C)cccc4C)s3)n2)C1 [Example I-4]                  −3.2
2  C=CC(=O)N1CCC(CNc2nccc(Nc3ncc(C(=O)Nc4c(C)cccc4C)s3)n2)C1 (racemic) [Example I-8]                  −0.1

Which measured % change of MS signal compared to control sample value corresponds to C=CC(=O)N1CCC(Cn2ccc(Nc3ncc(C(=O)Nc4c(C)cccc4Cl)s3)n2)C1 (stereo not shown) [II-1] ?
−5.8

Would you kindly repeat that for C=CC(=O)N1CCCCC(Nc2nccc(Nc3ncc(C(=O)Nc4c(C)cccc4C)s3)n2)C1 (stereo not shown) [Example I-7] ?
−4.7

###

Recorded % change of MS signal compared to control sample, one value per entry.
Target Desc: MELK (Homo sapiens (Human))
Sequence (Q14680 whole entry): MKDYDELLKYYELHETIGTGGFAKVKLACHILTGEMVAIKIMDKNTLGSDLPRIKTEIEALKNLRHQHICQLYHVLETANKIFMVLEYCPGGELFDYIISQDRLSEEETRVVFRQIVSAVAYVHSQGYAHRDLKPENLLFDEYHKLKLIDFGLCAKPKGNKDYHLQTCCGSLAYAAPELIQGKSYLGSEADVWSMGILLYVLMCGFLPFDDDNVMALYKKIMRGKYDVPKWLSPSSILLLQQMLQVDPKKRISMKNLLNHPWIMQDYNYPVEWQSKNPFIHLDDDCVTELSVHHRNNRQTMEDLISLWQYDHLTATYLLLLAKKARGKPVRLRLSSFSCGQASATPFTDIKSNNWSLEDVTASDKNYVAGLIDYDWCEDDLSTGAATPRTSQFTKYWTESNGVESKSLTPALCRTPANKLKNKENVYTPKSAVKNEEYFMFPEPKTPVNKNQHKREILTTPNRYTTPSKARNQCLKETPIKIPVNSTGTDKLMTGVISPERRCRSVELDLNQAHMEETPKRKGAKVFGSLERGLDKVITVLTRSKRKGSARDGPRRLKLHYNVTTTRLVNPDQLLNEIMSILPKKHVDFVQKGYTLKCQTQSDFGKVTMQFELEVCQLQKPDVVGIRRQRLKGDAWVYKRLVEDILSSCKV
Procedure Summary: KINATIV assay
Assay type: cell-based
Conditions: 1 μM, 90 minutes, BCWM.1 cells
Value expressed in %; do not type the unit.

> print(dat)
                                   compound  reported.measurement
1  C=CC(=O)N1CCC(Cn2ccc(Nc3ncc(C(=O)Nc4c(C)cccc4Cl)s3)n2)C1 (stereo not shown)                   4.2
2  C=CC(=O)N1CCCCC(Nc2nccc(Nc3ncc(C(=O)Nc4c(C)cccc4C)s3)n2)C1 (stereo not shown)                 −11.0
3  C=CC(=O)N1CCC(CNc2nccc(Nc3ncc(C(=O)Nc4c(C)cccc4C)s3)n2)C1 (racemic)                 −10.0

Let us examine a further case.
Which measured % change of MS signal compared to control sample value corresponds to C=CC(=O)N1CC[C@@H](Nc2nccc(Nc3ncc(C(=O)Nc4c(C)cccc4C)s3)n2)C1 ?
−11.7

###

Target Desc: SRC (Homo sapiens (Human))
Sequence (P12931 whole entry, looked up): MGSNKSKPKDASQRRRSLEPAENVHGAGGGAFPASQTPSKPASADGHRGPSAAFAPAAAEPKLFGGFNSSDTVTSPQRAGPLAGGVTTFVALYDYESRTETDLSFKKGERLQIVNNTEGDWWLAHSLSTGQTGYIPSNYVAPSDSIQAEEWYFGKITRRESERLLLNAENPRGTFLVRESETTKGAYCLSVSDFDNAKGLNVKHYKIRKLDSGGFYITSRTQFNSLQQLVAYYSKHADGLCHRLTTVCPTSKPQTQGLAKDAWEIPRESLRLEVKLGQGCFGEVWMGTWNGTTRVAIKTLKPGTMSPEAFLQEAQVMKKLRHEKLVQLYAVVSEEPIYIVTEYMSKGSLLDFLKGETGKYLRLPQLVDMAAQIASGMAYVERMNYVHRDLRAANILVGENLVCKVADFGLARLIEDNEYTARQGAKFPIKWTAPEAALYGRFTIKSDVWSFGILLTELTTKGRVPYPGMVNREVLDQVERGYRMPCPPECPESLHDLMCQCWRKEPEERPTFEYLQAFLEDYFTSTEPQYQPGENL
Procedure Summary: KINATIV assay
Type: cell-based
Conditions: 1 μM, 90 minutes, BCWM.1 cells
Measurement Label: % change of MS signal compared to control sample

The examples below pair each entry with its known result.
> print(dat)
                                   molecule  reported.measurement
1  C=CC(=O)N1CC[C@@H](Nc2nccc(Nc3ncc(C(=O)Nc4c(C)cccc4C)s3)n2)C1 [Example I-4]                  >90%
2  C=CC(=O)N1CCC(Cn2ccc(Nc3ncc(C(=O)Nc4c(C)cccc4Cl)s3)n2)C1 (stereo not shown) [II-1]                  >90%
3  C=CC(=O)N1CCC(CNc2nccc(Nc3ncc(C(=O)Nc4c(C)cccc4C)s3)n2)C1 (racemic) [Example I-8]                  >90%

Let us examine a further case.
Which measured % change of MS signal compared to control sample value corresponds to C=CC(=O)N1CCCCC(Nc2nccc(Nc3ncc(C(=O)Nc4c(C)cccc4C)s3)n2)C1 (stereo not shown) [Example I-7] ?
>90%

###

Recorded % change of MS signal compared to control sample, one value per entry.
Target Desc: TYK2 domain2 (Homo sapiens (Human), UniProt P29597)
Sequence (P29597 whole entry, the tested form may be a part): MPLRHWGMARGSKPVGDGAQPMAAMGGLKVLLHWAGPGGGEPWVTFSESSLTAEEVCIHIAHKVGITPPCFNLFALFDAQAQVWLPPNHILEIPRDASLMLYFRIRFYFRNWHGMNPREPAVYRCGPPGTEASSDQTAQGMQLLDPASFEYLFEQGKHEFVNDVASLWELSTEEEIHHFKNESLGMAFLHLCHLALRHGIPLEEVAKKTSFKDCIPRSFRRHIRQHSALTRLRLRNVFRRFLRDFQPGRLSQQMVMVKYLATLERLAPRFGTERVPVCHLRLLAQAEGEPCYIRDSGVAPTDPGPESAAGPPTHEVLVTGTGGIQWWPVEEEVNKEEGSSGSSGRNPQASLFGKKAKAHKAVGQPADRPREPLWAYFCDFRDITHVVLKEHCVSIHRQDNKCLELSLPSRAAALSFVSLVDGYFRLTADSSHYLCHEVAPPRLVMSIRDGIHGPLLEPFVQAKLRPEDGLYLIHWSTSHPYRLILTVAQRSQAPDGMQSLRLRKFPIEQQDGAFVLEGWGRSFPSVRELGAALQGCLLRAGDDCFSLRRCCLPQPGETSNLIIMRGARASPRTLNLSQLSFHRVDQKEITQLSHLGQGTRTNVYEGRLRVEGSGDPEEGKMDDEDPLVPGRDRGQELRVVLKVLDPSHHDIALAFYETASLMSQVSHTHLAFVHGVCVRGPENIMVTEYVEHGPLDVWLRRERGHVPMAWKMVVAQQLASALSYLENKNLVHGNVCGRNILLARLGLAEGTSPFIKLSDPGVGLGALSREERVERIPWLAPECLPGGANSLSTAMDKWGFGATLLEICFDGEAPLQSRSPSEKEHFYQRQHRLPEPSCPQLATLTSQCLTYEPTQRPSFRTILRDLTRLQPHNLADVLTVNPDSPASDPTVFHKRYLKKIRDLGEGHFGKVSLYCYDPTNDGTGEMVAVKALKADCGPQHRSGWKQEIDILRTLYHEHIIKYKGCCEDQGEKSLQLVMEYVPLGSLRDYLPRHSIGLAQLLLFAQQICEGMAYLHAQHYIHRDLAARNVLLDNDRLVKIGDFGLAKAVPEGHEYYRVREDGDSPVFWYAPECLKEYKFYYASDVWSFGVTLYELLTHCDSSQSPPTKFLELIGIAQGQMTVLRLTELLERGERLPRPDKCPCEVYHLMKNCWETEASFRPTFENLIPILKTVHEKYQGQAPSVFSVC
Procedure Summary: KINATIV assay
Type: cell-based
Conditions: 1 μM, 90 minutes, BCWM.1 cells
Value expressed in %; do not type the unit.

> print(dat)
                                   compound  reported.measurement
1  C=CC(=O)N1CC[C@@H](Nc2nccc(Nc3ncc(C(=O)Nc4c(C)cccc4C)s3)n2)C1                  −3.8

Which measured % change of MS signal compared to control sample value corresponds to C=CC(=O)N1CCC(CNc2nccc(Nc3ncc(C(=O)Nc4c(C)cccc4C)s3)n2)C1 (racemic) ?
−44.6

Would you kindly repeat that for C=CC(=O)N1CCCCC(Nc2nccc(Nc3ncc(C(=O)Nc4c(C)cccc4C)s3)n2)C1 (stereo not shown) ?
−46.4

Would you kindly repeat that for C=CC(=O)N1CCC(Cn2ccc(Nc3ncc(C(=O)Nc4c(C)cccc4Cl)s3)n2)C1 (stereo not shown) ?
−19.0

###

Tested on: PI4KA, PI4KAP2
Procedure Summary: KINATIV assay
Format: cell-based
Conditions: 1 μM, 90 minutes, BCWM.1 cells
Measurement Label: % change of MS signal compared to control sample (%)
Value expressed in %; do not type the unit.

> print(dat)
                                   compound  reported.measurement
1  C=CC(=O)N1CCC(Cn2ccc(Nc3ncc(C(=O)Nc4c(C)cccc4Cl)s3)n2)C1 (stereo not shown)                 −45.7
2  C=CC(=O)N1CCC(CNc2nccc(Nc3ncc(C(=O)Nc4c(C)cccc4C)s3)n2)C1 (racemic)                  −9.9
3  C=CC(=O)N1CCCCC(Nc2nccc(Nc3ncc(C(=O)Nc4c(C)cccc4C)s3)n2)C1 (stereo not shown)                 −17.4

Which measured % change of MS signal compared to control sample value corresponds to C=CC(=O)N1CC[C@@H](Nc2nccc(Nc3ncc(C(=O)Nc4c(C)cccc4C)s3)n2)C1 ?
−37.7

###

Tested on: Ramos
Procedure Summary: CellTiter-Glo Luminescent cell viability assay
Type: cell-based
Conditions: cell survival, 72 hours
Recorded pEC50, one value per entry.
Entry type: numeric. Quantity: pEC50, the -log10 of concentration in molar units.

Which measured pEC50 value corresponds to Cn1ccc(Nc2nc3ccc(Oc4ccccc4)nc3s2)n1 ?
6.13

###

Recorded % change of MS signal compared to control sample, one value per entry.
Target Desc: STLK6 (Homo sapiens (Human), UniProt Q9C0K7)
Sequence (Q9C0K7 whole entry): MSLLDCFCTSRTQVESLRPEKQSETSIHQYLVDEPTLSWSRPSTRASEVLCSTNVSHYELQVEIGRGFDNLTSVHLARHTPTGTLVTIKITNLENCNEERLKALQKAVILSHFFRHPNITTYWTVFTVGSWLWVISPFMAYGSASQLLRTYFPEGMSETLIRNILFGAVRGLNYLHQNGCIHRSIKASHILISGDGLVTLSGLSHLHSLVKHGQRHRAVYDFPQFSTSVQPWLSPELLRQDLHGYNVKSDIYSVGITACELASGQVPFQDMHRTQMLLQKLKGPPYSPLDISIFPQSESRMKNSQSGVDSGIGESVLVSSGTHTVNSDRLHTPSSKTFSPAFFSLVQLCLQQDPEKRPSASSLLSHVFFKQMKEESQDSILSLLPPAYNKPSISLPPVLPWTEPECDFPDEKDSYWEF
Procedure Summary: KINATIV assay
Format: cell-based
Conditions: 1 μM, 90 minutes, BCWM.1 cells
Write down the value, and be sure its unit follows.

The examples below pair each entry with its known result.
> print(dat)
                                   molecule  reported.measurement
1  C=CC(=O)N1CCC(Cn2ccc(Nc3ncc(C(=O)Nc4c(C)cccc4Cl)s3)n2)C1 (stereo not shown) [II-1]                 −0.8%
2  C=CC(=O)N1CCCCC(Nc2nccc(Nc3ncc(C(=O)Nc4c(C)cccc4C)s3)n2)C1 (stereo not shown) [Example I-7]                −16.3%
3  C=CC(=O)N1CCC(CNc2nccc(Nc3ncc(C(=O)Nc4c(C)cccc4C)s3)n2)C1 (racemic) [Example I-8]                −12.9%

Notebook entry, STLK6 (Homo sapiens (Human), UniProt Q9C0K7) assay: % change of MS signal compared to control sample of C=CC(=O)N1CC[C@@H](Nc2nccc(Nc3ncc(C(=O)Nc4c(C)cccc4C)s3)n2)C1 [Example I-4] = ?
7.4%

###

Target Desc: YSK1 (Homo sapiens (Human))
Sequence (O00506 whole entry): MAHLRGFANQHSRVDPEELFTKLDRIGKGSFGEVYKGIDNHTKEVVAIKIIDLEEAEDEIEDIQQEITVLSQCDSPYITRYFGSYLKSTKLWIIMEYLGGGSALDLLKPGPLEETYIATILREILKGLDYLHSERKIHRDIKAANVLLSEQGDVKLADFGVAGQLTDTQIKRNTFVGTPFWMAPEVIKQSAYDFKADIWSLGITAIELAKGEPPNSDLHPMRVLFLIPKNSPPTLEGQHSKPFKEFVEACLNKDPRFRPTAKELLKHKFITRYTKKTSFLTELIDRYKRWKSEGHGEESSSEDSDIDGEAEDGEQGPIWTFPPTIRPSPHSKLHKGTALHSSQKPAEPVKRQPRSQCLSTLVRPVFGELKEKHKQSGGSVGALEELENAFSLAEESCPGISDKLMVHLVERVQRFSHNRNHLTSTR
Procedure Summary: KINATIV assay
Format: cell-based
Conditions: 1 μM, 90 minutes, BCWM.1 cells
Measurement Label: % change of MS signal compared to control sample (%)
Value expressed in %; do not type the unit.

The examples below pair each entry with its known result.
> print(dat)
                                   compound  unit.annotation  reported.measurement
1  C=CC(=O)N1CCC(CNc2nccc(Nc3ncc(C(=O)Nc4c(C)cccc4C)s3)n2)C1 (racemic)                %                 −29.2
2  C=CC(=O)N1CCC(Cn2ccc(Nc3ncc(C(=O)Nc4c(C)cccc4Cl)s3)n2)C1 (stereo not shown)                %                 −27.4
3  C=CC(=O)N1CC[C@@H](Nc2nccc(Nc3ncc(C(=O)Nc4c(C)cccc4C)s3)n2)C1                %                 −58.5

Which measured % change of MS signal compared to control sample value corresponds to C=CC(=O)N1CCCCC(Nc2nccc(Nc3ncc(C(=O)Nc4c(C)cccc4C)s3)n2)C1 (stereo not shown) ?
−19.9
